This collection of values is drawn from patent US20230063116A1.

biological target: T1, human VEGF165 (REGN110) (human, UniProt P15692 207-395); assay: SPR, Biacore, 25 C; trap captured on anti-VEGFR1 mAb surface, hVEGF165 injected; 1:1 fit
T1 construct: also called hVEGF165; hVEGF165(M1-R191)
T1 sequence (P15692 other isoform, or with tags, fused parts or gaps): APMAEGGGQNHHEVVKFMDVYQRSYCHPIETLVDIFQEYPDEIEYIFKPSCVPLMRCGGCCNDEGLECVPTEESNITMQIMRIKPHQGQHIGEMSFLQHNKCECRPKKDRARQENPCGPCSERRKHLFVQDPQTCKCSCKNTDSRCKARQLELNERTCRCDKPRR
REPORTED_METRIC: kon (M⁻¹ s⁻¹)
Expressed in M⁻¹ s⁻¹, but write only the number.

I have this binder here, REGN7483^F (homodimer mini-trap, FabRICATOR cleaved from aflibercept) (receptor, N-linked glycans at N36, N68, N123, N196 (Table C), Disulfide-linked homodimer made by IdeS cleavage of aflibercept; also called dimer mini-trap from FabRICATOR (IdeS) cleavage of REGN3) SDTGRPFVEMYSEIPEIIHMTEGRELVIPCRVTSPNITVTLKKFPLDTLIPDGKRIIWDSRKGFIISNATYKEIGLLTCEATVNGHLYKTNYLTHRQTNTIIDVVLSPSHGIELSVGEKLVLNCTARTELNVGIDFNWEYPSSKHQHKKLVNRDLKTQSGSEMKKFLSTLTIDGVTRSDQGLYTCAASSGLMTKKNSTFVRVHEKDKTHTCPPCPAPELLG , and I need its recorded kon.
7.59e+06

Thanks! And REGN7850 (VEGF mini-trap-hFc …) (receptor, Recombinant homodimer; also called REGN7850 (CPPCPPC)) SDTGRPFVEMYSEIPEIIHMTEGRELVIPCRVTSPNITVTLKKFPLDTLIPDGKRIIWDSRKGFIISNATYKEIGLLTCEATVNGHLYKTNYLTHRQTNTIIDVVLSPSHGIELSVGEKLVLNCTARTELNVGIDFNWEYPSSKHQHKKLVNRDLKTQSGSEMKKFLSTLTIDGVTRSDQGLYTCAASSGLMTKKNSTFVRVHEKDKTHTCPPCPPC ?
6.46e+06

Thanks! And REGN7483^R (homodimer mini-trap, recombinant) (receptor, N-linked glycans at N36, N68, N123, N196 (Table C), also called Recombinant dimer mini-trap) SDTGRPFVEMYSEIPEIIHMTEGRELVIPCRVTSPNITVTLKKFPLDTLIPDGKRIIWDSRKGFIISNATYKEIGLLTCEATVNGHLYKTNYLTHRQTNTIIDVVLSPSHGIELSVGEKLVLNCTARTELNVGIDFNWEYPSSKHQHKKLVNRDLKTQSGSEMKKFLSTLTIDGVTRSDQGLYTCAASSGLMTKKNSTFVRVHEKDKTHTCPPCPAPELLG ?
6.3e+06

Thanks! And REGN7851 (VEGF mini-trap-hFc …) (receptor, Recombinant homodimer; also called REGN7851 (CPPCPPCPPC)) SDTGRPFVEMYSEIPEIIHMTEGRELVIPCRVTSPNITVTLKKFPLDTLIPDGKRIIWDSRKGFIISNATYKEIGLLTCEATVNGHLYKTNYLTHRQTNTIIDVVLSPSHGIELSVGEKLVLNCTARTELNVGIDFNWEYPSSKHQHKKLVNRDLKTQSGSEMKKFLSTLTIDGVTRSDQGLYTCAASSGLMTKKNSTFVRVHEKDKTHTCPPCPPCPPC ?
5.51e+06
